test system: CAKI-1; assay: NCI tumour cell line growth inhibition, 48 h
Active and inactive are the calls of the source. No stated cut-off is given here; in the data, active = GI50 up to about 1.1 µM and inactive = higher.
outcome-measure: GI50

molecule | value-reported
C[n+]1c(-c2ccc(NC(=O)c3ccc(C(=O)Nc4ccc(-c5cn6ccccc6[n+]5C)cc4)cc3)cc2)cn2ccccc21 | > 100 µM (inactive)

For each of the items listed, what is its GI50?
1. C(=C\c1cc(-c2ccc3ccccc3n2)nc2ccc3ccccc3c12)/c1ccc2ccccc2n1
2. CNS(=O)(=O)NN(C)S(=O)(=O)c1ccc(OC)cc1

Output:
> 100 µM (inactive)
> 100 µM (inactive)

For each of the items listed, what is its GI50?
1. CC(C)(C)NCC(O)COc1cccc2[nH]c(C#N)cc12 (stereo not drawn) [CYANOPINDOLOL]
2. CC1=NC(=Cc2cc(Br)cc(Br)c2)C(=O)N1n1c(-c2ccccc2)nc2ccccc2c1=O
3. CCOC(=O)CCC(C(=O)OCC)n1nnc2ccc(Nc3c(C)[n+]([O-])c4cc(Cl)ccc4[n+]3[O-])cc21 (stereo not drawn)
4. O=C(O)C1=C(C(=O)O)N(c2ccncc2)C(c2ccco2)=CC1c1ccccc1[N+](=O)[O-] (stereo not drawn)
5. C(=N\NC1=NCCCN1)/c1ccc(-c2cn3cc(/C=N/NC4=NCCCN4)ccc3n2)cc1
6. CC(=O)NC1C(OC(C)C(=O)NC(C(=O)NC(CCC(=O)NCCCNC2c3ccccc3Nc3cccc([N+](=O)[O-])c32)C(N)=O)C(C)C)C(O)C(CO)OC1(C)OCc1ccccc1 (stereo not drawn)
7. O=C1c2ccccc2C(=O)c2c1ccc1c3ccccc3n(Cc3ccccc3)c21

Output:
["> 100 µM (inactive)", "> 100 µM (inactive)", "34.4 µM (inactive)", "15.5 µM (inactive)", "37 µM (inactive)", "1.33 µM (inactive)", "> 100 µM (inactive)"]

----------
For each of the compounds below, state its GI50.
test system: RXF 393; assay: NCI tumour cell line growth inhibition, 48 h
Calls of active or inactive are those of the source. Rule as the data show it: active = GI50 up to about 1.1 µM and inactive = higher.

Some solved entries appear below for comparison.
compound | GI50
CCO/C=C1\N=C(C(Cl)c2ccccc2)OC1=O (configuration not stated) | > 100 µM (inactive)
Cc1ccc(S(=O)(=O)NC(=O)C#CCOC2CCCCO2)cc1 (configuration not stated) | > 100 µM (inactive)
O=C(N[C@H]1CCC[C@H]1C(=O)Nc1ccc(C(F)(F)F)cc1)OCc1ccccc1 | > 100 µM (inactive)
O=[N+]([O-])C(=C(N1CCOCC1)N1CCOCC1)/C(Cl)=C(\Cl)[N+](=O)[O-] | 1.77 µM (inactive)
O=C1Cc2c([nH]c3ccccc23)-c2ccccc2N1 [PAULLONE] | 16.1 µM (inactive)

For each of the items listed, what is its GI50?
1. Cc1ccccc1NC(=O)O/N=C(\Cl)C(C)C
2. CC(C)NC1CCCCC2c3cc(F)ccc3[C@]12O (some centres not stated)
3. C=CCCCCOC1C=CC(OC(C)=O)C(COC(C)=O)O1 (configuration not stated)
4. CCN(CC)CCNC(=O)c1cc2cc(NC(=O)c3cc4cc(N)ccc4[nH]3)ccc2[nH]1
5. Nc1[nH]c(=S)[nH]c(=O)c1/N=N/c1c(Br)cc(S(N)(=O)=O)cc1Br
6. CCOc1cc[n+]([C-](C#N)C#N)cc1
7. CC(C)CC(=O)NS(=O)(=O)c1ccccc1

Output:
["12.6 µM (inactive)", "> 100 µM (inactive)", "> 100 µM (inactive)", "20.3 µM (inactive)", "> 100 µM (inactive)", "> 100 µM (inactive)", "> 100 µM (inactive)"]

For each of the items listed, what is its GI50?
1. CCOC(=O)C(C)(c1c(C)[nH]c2ccccc12)c1c(C)[nH]c2ccccc12
2. C=C(c1ccccc1N)[C@@]1(O)C[C@H](/C(=C\C)CO)C[C@@H]1NCc1ccccc1
3. COc1ccc(CNC(=O)[C@H](Cc2ccc(O)cn2)NC(C)=O)cc1OC
4. CCC1(CC)C(=O)N(C(=O)c2cc(OC)c(OC)c(OC)c2)N(C(=O)c2cc(OC)c(OC)c(OC)c2)C1=O
5. [N-]=[N+]=NC1=C(N=[N+]=[N-])c2cccc3cccc(c23)C1=O
6. Cc1ccc2c(O)cc(-c3cc(C)sc3C)nc2n1
7. CC1(C)Cc2c(sc3[nH]c(=S)[nH]c(=S)c23)CS1
8. COc1ccc(Nc2nn3c(=O)c4c(C)c(C)sc4nc3s2)cc1

Output:
1. 12.9 µM (inactive)
2. 16.7 µM (inactive)
3. > 100 µM (inactive)
4. > 50 µM (inactive)
5. 65.6 µM (inactive)
6. 2.81 µM (inactive)
7. 60.8 µM (inactive)
8. 19.7 µM (inactive)

For each of the items listed, what is its GI50?
1. O=C(NO)c1ccc(OCc2ccccc2)cc1
2. O=C1C=CC(O)C2C1CC13SSC4(CC5C(=O)C=CC(O)C5N4C1=O)C(=O)N23 (configuration not stated)
3. COC(=O)c1ccccc1/C=C1\Cc2cc(C)c(C)cc2C1=O
4. BrC1=CC=C2NC=CC3=CC=NC1C32 (configuration not stated)
5. COC(=O)/C1=C/C2CC(/C=C(/c3ccccc3)C(=O)O1)C2
6. COc1ccc(C(=O)C2CCC(C(=O)O)C2)cc1 (configuration not stated)
7. CC(=O)NC(Cc1c[nH]c2ccccc12)C(=O)O (configuration not stated)

Output:
26.7 µM (inactive)
0.483 µM (active)
89.1 µM (inactive)
16 µM (inactive)
25.1 µM (inactive)
> 100 µM (inactive)
> 100 µM (inactive)

For each of the items listed, what is its GI50?
1. CSc1nc2ccccc2c(=O)n1/N=C1\C(=O)N(CN2CCOCC2)c2ccc(Cl)cc21
2. CCNc1ccc2c(c1)Cc1ccccc1-2
3. COC(=O)C1=CS/C(=C2\S[C@@H]3[C@H](S2)[C@H]2C=C[C@@H]3C2)S1
4. NN/C(=N\S(=O)(=O)c1cc2ccccc2s1)Nc1ccc(Cl)cc1
5. COc1cccc2c1C(=O)c1c(O)c3c(c(O)c1C2=O)C[C@@](O)(/C(C)=N/NC(=O)c1ccc(Cl)c(Cl)c1)C[C@@H]3OC1CC(N)C(O)C(C)O1 (some centres not stated)
6. CNc1cc2oc(=O)cc(C)c2cc1C
7. Cc1cc2nc3c(C#N)c(-c4ccccc4)cc(Nc4ccc(F)cc4)n3c2cc1C
8. CC(/C=C1\CCC(CN(C)C)C1=O)c1cccc(Br)c1 (configuration not stated)

Output:
1: 18.1 µM (inactive); 2: > 100 µM (inactive); 3: 29.6 µM (inactive); 4: 15.5 µM (inactive); 5: 1.15 µM (inactive); 6: > 100 µM (inactive); 7: 14.4 µM (inactive); 8: 13.3 µM (inactive)

For each of the items listed, what is its GI50?
1. O=C(O)CN(CCNC(=O)OCC1c2ccccc2-c2ccccc21)CCNC(=O)OCC1c2ccccc2-c2ccccc21
2. CN(C)CCCNC(=O)c1cc2/c(=C\c3ccc(N(C)C)cc3)c3ccccc3n2[n+]1C

Output:
1. 36.1 µM (inactive)
2. > 100 µM (inactive)

For each of the items listed, what is its GI50?
1. CCSc1nc(N)c2c(-c3ccc(OC)c(OC)c3)c3c(nc2n1)CCCC3
2. O=C(CN1CCOCC1)c1ccc2c(c1)oc(=O)n2CCN1CCCC1
3. O=C(O)CSc1ncccc1[N+](=O)[O-]
4. Cc1nnc(N)nc1/C=C/c1c(O)ccc2ccccc12

Output:
> 100 µM (inactive)
> 100 µM (inactive)
> 100 µM (inactive)
15.6 µM (inactive)

Recorded result, CCOC(=O)CC1Nc2ccccc2C12CCc1c([nH]c3ccccc13)C2C(=O)OCC (configuration not stated) , GI50: 5.79 µM (inactive)

----------
test system: Hs-578T; assay: NCI tumour cell line growth inhibition, 48 h
Active and inactive are the calls of the source. Rule as the data show it: active = GI50 up to about 1.1 µM and inactive = higher.
outcome-measure: GI50

Some solved entries appear below for comparison.
compound | GI50
CC(=O)OCC1OC(SC2=NC(=O)CS2)C(OC(C)=O)C(OC(C)=O)C1OC(C)=O (stereo not given) | > 100 µM (inactive)
CNC(=O)C1CCCN1C(=O)C(Cc1c[nH]cn1)NC(=O)C1CCC(=O)N1 (stereo not given) | > 100 µM (inactive)
c1ccc(-c2nn(-c3ccccc3)[n+](-c3ccccc3)n2)cc1 | 31.6 µM (inactive)
COC(=O)c1c(C#N)[nH]c(-c2ccsc2)c1C(=O)OC | > 100 µM (inactive)

Now look at this entry.
Recorded result, COC(=O)c1ccc(NC(=O)O/N=C(\Cl)C(C)C)cc1 , GI50: 10.8 µM (inactive)

----------
For each of the compounds below, state its GI50.
tested on: KM12; test: NCI tumour cell line growth inhibition, 48 h
Active and inactive are the calls of the source. No stated cut-off is given here; in the data, active = GI50 up to about 1.1 µM and inactive = higher.

For each of the items listed, what is its GI50?
1. C1=C(c2ccccc2)Nc2nnnn2C1c1ccccc1 (stereo not drawn)
2. CCc1ccc2c(c1)/C(=C1/Nc3ccccc3C1=O)C(=O)N2
3. OC1c2ccccc2CC12Cc1ccccc1C2 (stereo not drawn)

Output:
["13.5 µM (inactive)", "0.428 µM (active)", "> 100 µM (inactive)"]
